testTarget: human glucocorticoid receptor (Homo sapiens, UniProt P04150)
Construct: purified human recombinant full-length glucocorticoid receptor (2 nM); purchased Invitrogen Part # 2893
Sequence (P04150 1-777): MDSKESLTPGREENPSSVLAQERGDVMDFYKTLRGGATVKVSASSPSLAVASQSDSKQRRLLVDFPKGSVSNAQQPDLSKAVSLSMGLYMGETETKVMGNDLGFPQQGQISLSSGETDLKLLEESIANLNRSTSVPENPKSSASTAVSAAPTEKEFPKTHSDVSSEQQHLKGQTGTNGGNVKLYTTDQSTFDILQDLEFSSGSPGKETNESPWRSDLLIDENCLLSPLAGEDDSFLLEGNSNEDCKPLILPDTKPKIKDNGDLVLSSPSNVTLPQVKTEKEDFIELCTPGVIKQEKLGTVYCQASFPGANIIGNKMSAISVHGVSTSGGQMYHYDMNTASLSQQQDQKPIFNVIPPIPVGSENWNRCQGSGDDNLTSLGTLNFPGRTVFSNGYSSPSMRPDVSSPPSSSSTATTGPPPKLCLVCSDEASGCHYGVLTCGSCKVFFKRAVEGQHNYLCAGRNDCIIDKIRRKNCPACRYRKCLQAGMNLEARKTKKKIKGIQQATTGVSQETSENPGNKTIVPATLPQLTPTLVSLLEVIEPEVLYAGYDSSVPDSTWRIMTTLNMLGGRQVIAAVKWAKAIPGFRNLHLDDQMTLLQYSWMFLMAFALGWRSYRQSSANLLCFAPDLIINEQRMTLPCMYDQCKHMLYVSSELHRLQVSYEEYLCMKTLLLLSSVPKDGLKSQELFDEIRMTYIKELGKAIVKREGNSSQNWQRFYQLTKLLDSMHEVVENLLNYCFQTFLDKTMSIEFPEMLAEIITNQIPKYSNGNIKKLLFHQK
procedureText: Glucocorticoid Receptor Binding Assay (I), fluorescence polarization competitor kit (Fluormone GS Red)
appliedConditions: purified human recombinant full-length GR
measurementKind: Ki (nM)
Could you give me the number in nM? Just the number is fine.

Answered examples (8):
{"compound": "CC(CNS(=O)(=O)CC(F)(F)F)C(c1ccccc1)c1ccc2c(cnn2-c2ccc(F)cc2)c1 (single isomer, unassigned) [Example 91D]", "Ki / nM": 74}
{"compound": "CC(C)CC(c1ccc2c(cnn2-c2ccc(F)cc2)c1)C(C)(C)CNS(=O)(=O)NC(C)(C)C (stereo not drawn)", "Ki / nM": 4.3}
{"compound": "CC(C)(CNC(=O)CC(F)(F)F)[C@@H](c1ccccc1)c1ccc2c(cnn2-c2ccc(F)cc2)c1 [(S)-17]", "Ki / nM": 0.63}
{"compound": "CCNC(=O)NCC(C)(C)C(C)(C)c1ccc2c(cnn2-c2ccc(F)cc2)c1", "Ki / nM": 20}
{"compound": "CC(C)CC(c1ccc2[nH]ncc2c1)C(C)(C)CNC(=O)NC(C)(C)C (stereo not drawn)", "Ki / nM": 44}
{"compound": "CC(C)CC(c1ccc2c(cnn2-c2ccc(F)cc2)c1)C(C)(C)CNC(=O)NC1CCOCC1 (stereo not drawn)", "Ki / nM": 5.8}
{"compound": "CC(C)CC(c1ccc2c(cnn2-c2ccc(F)cc2)c1)C(C)(C)CNC(=O)NC1CCC(C(C)(C)C)CC1 (stereo not drawn)", "Ki / nM": 26}
{"compound": "CCS(=O)(=O)NCC(C)C(c1ccccc1)c1ccc2c(cnn2-c2ccc(F)cc2)c1 (stereo not drawn)", "Ki / nM": 0.92}

Now look at this entry.
Returns the measured Ki for the input compound. Input: CC(C)CC(c1ccc2c(cnn2-c2ccc(F)cc2)c1)C(C)(C)CNC(=O)NC1CCN(Cc2ccccc2)CC1 (stereo not drawn)
11
